test system: SK-MEL-2 melanoma; test: NCI-60 one-dose screen, 48 h (100 = growth as untreated, 0 = no growth, -100 = all killed); settings: 10 µM unless noted
The panel holds about 83,000 compounds, 20% with a hit somewhere; the sample as a whole holds those more often.
# satisfied = growth below 60% (exclusive); not satisfied = growth at/above 60%

Answered cases to consult:
{"Compound": "O=S(=O)(NCCNc1cc(-c2cn(-c3ccccc3)nc2-c2ccccc2)ccn1)c1ccc(F)cc1", "Assigned Label": "not satisfied"}
{"Compound": "COc1ccc(NC(=O)c2cc3ccccc3nc2Nc2cc(OC)c(OC)c(OC)c2)cc1", "Assigned Label": "not satisfied"}
{"Compound": "COc1ccc(/C(=N\\O)c2cc(OC)c(OC)c(OC)c2)c(OC)c1N", "Assigned Label": "satisfied"}
{"Compound": "COC(=O)CCCCCCN=Cc1c(O)c(O)c(C(C)C)c2cc(C)c(-c3c(C)cc4c(C(C)C)c(O)c(O)c(C=NCCCCCCC(=O)OC)c4c3O)c(O)c12", "Assigned Label": "satisfied"}
{"Compound": "CCOC(=O)C(Cc1ccccc1)n1c(O)c(C=Nc2ccc(C(=O)OCCN(CC)CC)cc2)sc1=O (stereo unspecified)", "Assigned Label": "not satisfied"}
{"Compound": "CC(C(=O)n1cc(-c2ccccc2)c(-c2ccccc2)c1)c1ccccc1 (stereo unspecified)", "Assigned Label": "not satisfied"}

For the next question, use this compound.
Q: Is the reported growth for CC[C@]1(O)C[C@@H]2CN(Cc3c([nH]c4ccccc34)[C@@](C(=O)OC)(c3cc4c(cc3OC)N(C)[C@H]3[C@@](O)(C(=O)OC)[C@H](OC(C)=O)[C@]5(CC)[C@@H]6C[C@@H]6CN6CC[C@]43[C@@H]65)C2)C1 strictly below 60%?
A: satisfied
